- System: TGFβ signal
- experiment.notes: TGFβ signal inhibitory activity, (SBE)4-Luc reporter in A549 cells (Test Examples 1A and 1B)
- Type: cell-based, human
- run.conditions: Homo sapiens, A549; test compound 3 µM; TGFβ-1 2 ng/ml, 4 hr; Table 1A; read-out: TGFβ inhibition rate, %
assay.endpoint: inhibition at 3 µM (%)
Provide the reading as a plain figure in %.

Cc1cc(Oc2ccnc3cc(-c4cccc(N)c4)ccc23)c(-c2ccccn2)nc1C    99
COc1cc2nccc(Oc3cc4cccnc4nc3-c3ccccc3)c2cc1OCc1ccccc1    99

Kindly review the next compound as well.
Req: Using the record for COc1cc2nccc(Oc3cc(C)c(C)nc3-c3ccccn3)c2cc1-c1cccnc1 , report its inhibition at 3 µM.
Resp: 99
